Type: physicochemical
Conditions: MeOH, 50° C., 29 hrs
Numbered stars: 1 amine (or outer) side, 2 acyl side, 3 side chain; on linkers, the order of the positions; unused ones are H or OH. Square brackets hold non-standard residues; d marks the D form. Peptide text beside a SMILES is read from it. ξ: configuration not given here. MeBmt = C/C=C/C[C@@H](C)[C@@H](O)[C@H](NC)C(=O)O; X1 = CN([C@H](SCCCN1CCOCC1)C(=O)[*:2])[*:1]; X2 = CCN(CC)CCCS[C@H](C(=O)[*:2])N(C)[*:1]; X3 = CCN(CC)CCS[C@H](C(=O)[*:2])N(C)[*:1]; NMeIle(3ξ) = CCC(C)[C@H](NC)C(=O)O; NMeL = CN[C@@H](CC(C)C)C(=O)O; NMeV = CN[C@H](C(=O)O)C(C)C; Abu = CC[C@H](N)C(=O)O
Experimental Endpoint: Epimerization in MeOH at 50° C. (%)
Numbers only; they are read as %.

Before answering, review these 2 worked examples.
{"Molecule": "C/C=C/C[C@@H](C)[C@@H](O)[C@H]1C(=O)N[C@@H](CC)C(=O)N(C)[C@H](SCCCN(CC)CC)C(=O)N(C)[C@@H](C(C)CC)C(=O)N[C@@H](C(C)C)C(=O)N(C)[C@@H](CC(C)C)C(=O)N[C@@H](C)C(=O)N[C@H](C)C(=O)N(C)[C@@H](CC(C)C)C(=O)N(C)[C@@H](CC(C)C)C(=O)N(C)[C@@H](C(C)C)C(=O)N1C (stereo partly drawn) (cyclo(A[dA][NMeL][NMeL][NMeV][MeBmt][Abu][X2][NMeIle(3ξ)]V[NMeL]))", "Experimental Endpoint": "Epimerization in MeOH at 50° C.", "Endpoint Value": 0}
{"Molecule": "C/C=C/C[C@@H](C)[C@@H](O)[C@H]1C(=O)N[C@@H](CC)C(=O)N(C)[C@H](SCCN(C)C)C(=O)N(C)[C@@H](CC(C)C)C(=O)N[C@@H](C(C)C)C(=O)N(C)[C@@H](CC(C)C)C(=O)N[C@@H](C)C(=O)N[C@H](C)C(=O)N(C)[C@@H](CC(C)C)C(=O)N(C)[C@@H](CC(C)C)C(=O)N(C)[C@@H](C(C)C)C(=O)N1C [drawing 58, reference compound]", "Experimental Endpoint": "Epimerization in MeOH at 50° C.", "Endpoint Value": 25.5}

Item under review: C/C=C/C[C@@H](C)[C@@H](O)[C@H]1C(=O)N[C@@H](CC)C(=O)N(C)[C@H](SCCCN2CCOCC2)C(=O)N(C)[C@@H](C(C)C)C(=O)N[C@@H](C(C)C)C(=O)N(C)[C@@H](CC(C)C)C(=O)N[C@@H](C)C(=O)N[C@H](C)C(=O)N(C)[C@@H](CC(C)C)C(=O)N(C)[C@@H](CC(C)C)C(=O)N(C)[C@@H](C(C)C)C(=O)N1C (cyclo(A[dA][NMeL][NMeL][NMeV][MeBmt][Abu][X1][NMeV]V[NMeL])) . Reported Epimerization in MeOH at 50° C.?
0

Item under review: C/C=C/C[C@@H](C)[C@@H](O)[C@H]1C(=O)N[C@@H](CC)C(=O)N(C)[C@H](SCCCN(CC)CC)C(=O)N(C)[C@@H](C(C)C)C(=O)N[C@@H](C(C)C)C(=O)N(C)[C@@H](CC(C)C)C(=O)N[C@@H](C)C(=O)N[C@H](C)C(=O)N(C)[C@@H](CC(C)C)C(=O)N(C)[C@@H](CC(C)C)C(=O)N(C)[C@@H](C(C)C)C(=O)N1C (cyclo(A[dA][NMeL][NMeL][NMeV][MeBmt][Abu][X2][NMeV]V[NMeL])) . Reported Epimerization in MeOH at 50° C.?
0

Please look up its Epimerization in MeOH at 50° C.: C/C=C/C[C@@H](C)[C@@H](O)[C@H]1C(=O)N[C@@H](CC)C(=O)N(C)[C@H](SCCN(CC)CC)C(=O)N(C)[C@@H](C(C)CC)C(=O)N[C@@H](C(C)C)C(=O)N(C)[C@@H](CC(C)C)C(=O)N[C@@H](C)C(=O)N[C@H](C)C(=O)N(C)[C@@H](CC(C)C)C(=O)N(C)[C@@H](CC(C)C)C(=O)N(C)[C@@H](C(C)C)C(=O)N1C (stereo partly drawn) [reference compound] (cyclo(A[dA][NMeL][NMeL][NMeV][MeBmt][Abu][X3][NMeIle(3ξ)]V[NMeL]))
4.4

So what does the record say about Epimerization in MeOH at 50° C. for C/C=C/C[C@@H](C)[C@@H](O)[C@H]1C(=O)N[C@@H](CC)C(=O)N(C)[C@H](SCCCN2CCOCC2)C(=O)N(C)[C@@H](C(C)CC)C(=O)N[C@@H](C(C)C)C(=O)N(C)[C@@H](CC(C)C)C(=O)N[C@@H](C)C(=O)N[C@H](C)C(=O)N(C)[C@@H](CC(C)C)C(=O)N(C)[C@@H](CC(C)C)C(=O)N(C)[C@@H](C(C)C)C(=O)N1C (stereo partly drawn) (cyclo(A[dA][NMeL][NMeL][NMeV][MeBmt][Abu][X1][NMeIle(3ξ)]V[NMeL])) ?
0
